assay: melting temperature (DSF); higher = more thermostable
measured quantity: melting temperature (C)

1. ASPYERGPNPTTAILEASSGPYSVSSVSVSSLVTGFGGGRIYYPTTTADGTFGGIAISPGFTARWSSLEWLGPRIASHGFVVIGIETNSIYDQPTSRGQQLLAALDYLVNSSSARTRVDRNRLAVAGHSMGGGGTLYAANARPSLQAAVPIAPWNTDKTWGGVQVPTMIIGGESDSVAPVATHAIPFYTSIPASSEKAYLELNNASHFFPQTVNTTMAKSMVSWLKRYVDDDTRYDPWLCPAPSGLSISDYRDTCPA [DP084] | 48.7
2. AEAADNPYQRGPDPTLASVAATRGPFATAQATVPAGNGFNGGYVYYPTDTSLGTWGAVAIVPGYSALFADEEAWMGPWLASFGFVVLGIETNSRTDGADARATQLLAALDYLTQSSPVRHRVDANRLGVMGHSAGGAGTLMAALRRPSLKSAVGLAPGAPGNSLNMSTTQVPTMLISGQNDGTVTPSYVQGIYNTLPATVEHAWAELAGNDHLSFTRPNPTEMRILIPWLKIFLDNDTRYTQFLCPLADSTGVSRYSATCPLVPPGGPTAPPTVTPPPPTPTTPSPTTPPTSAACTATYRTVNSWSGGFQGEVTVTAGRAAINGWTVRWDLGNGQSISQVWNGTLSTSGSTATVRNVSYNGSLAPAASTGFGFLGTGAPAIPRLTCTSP [ESM037] | 73.3

* * *

assay: PET hydrolysis, aromatic products released after 48 h (umol product/mg enzyme); higher = more PET depolymerization activity; conditions: substrate: aFilm; 60 °C; pH 4.5
Form field: PET hydrolysis (one value per entry).
measured quantity: PET hydrolysis

1. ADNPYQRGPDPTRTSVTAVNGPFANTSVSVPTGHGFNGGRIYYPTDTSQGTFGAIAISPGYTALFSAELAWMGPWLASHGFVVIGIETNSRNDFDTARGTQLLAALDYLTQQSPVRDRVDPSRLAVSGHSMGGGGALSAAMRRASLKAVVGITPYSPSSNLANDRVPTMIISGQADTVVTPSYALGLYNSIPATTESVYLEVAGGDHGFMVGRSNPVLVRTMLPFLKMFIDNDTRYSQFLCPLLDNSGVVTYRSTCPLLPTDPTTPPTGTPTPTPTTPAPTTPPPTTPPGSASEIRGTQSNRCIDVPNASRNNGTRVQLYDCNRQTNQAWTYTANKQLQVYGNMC [ESM106] | < 3
2. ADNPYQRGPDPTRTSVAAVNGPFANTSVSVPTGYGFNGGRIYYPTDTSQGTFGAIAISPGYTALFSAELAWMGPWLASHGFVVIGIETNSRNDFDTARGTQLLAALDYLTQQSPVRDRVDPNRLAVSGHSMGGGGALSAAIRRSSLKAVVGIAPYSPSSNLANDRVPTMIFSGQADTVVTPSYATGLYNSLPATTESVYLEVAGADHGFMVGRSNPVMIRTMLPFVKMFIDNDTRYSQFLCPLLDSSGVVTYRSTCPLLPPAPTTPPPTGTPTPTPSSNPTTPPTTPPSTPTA [ESM061] | < 3

* * *

test: PET hydrolysis, aromatic products released after 48 h (umol product/mg enzyme); higher = more PET depolymerization activity; conditions: substrate: cryPow; 60 °C; pH 7.5
# PET hydrolysis >= 30 gives 1, anything below gives 0

1) ADNPYQRGPDPTNASIEAATGPFAVGTQPIVGASGFGGGQIYYPTDTSQTYGAVVIVPGFISVWAQLNWLGPRLASQGFVVIGIETSVITDLPDPRGDQALAALDWATTRSPVASRIDRTRLAAAGWSMGGGGLRRAALQRPSLKAIVGMAPWNGERNWSAVTVPTLFFGGSSDAVASPNDHAKPFYNSITRAEKDYIELRNADHFFPTSANTTMAKYFISWLKRWVDNDTRYTQFLCPGPSTGLFAPVSASMNTCPF [DP077] | 1
2) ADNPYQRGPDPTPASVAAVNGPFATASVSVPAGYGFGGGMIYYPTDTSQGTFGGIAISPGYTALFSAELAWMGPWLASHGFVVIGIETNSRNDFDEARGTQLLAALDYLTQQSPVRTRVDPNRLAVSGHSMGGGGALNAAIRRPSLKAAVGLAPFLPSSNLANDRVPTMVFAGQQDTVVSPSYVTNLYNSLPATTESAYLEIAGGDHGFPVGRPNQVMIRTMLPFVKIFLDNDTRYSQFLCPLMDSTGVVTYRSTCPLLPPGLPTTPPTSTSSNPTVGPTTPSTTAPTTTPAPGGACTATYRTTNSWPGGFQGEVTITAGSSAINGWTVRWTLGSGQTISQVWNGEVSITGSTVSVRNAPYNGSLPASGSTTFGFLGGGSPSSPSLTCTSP [TEP165] | 1
3) ASPYERGPNPTTAILEASSGPYSVSSVSVSSLVTGFGGGRIYYPTTTADGTFGGIAISPGFTARWSSLEWLGPRIASHGFVVIGIETNSIYDQPTSRGQQLLAALDYLVNSSSARTRVDRNRLAVAGHSMGGGGTLYAANARPSLQAAVPIAPWNTDKTWGGVQVPTMIIGGESDSVAPVATHAIPFYTSIPASSEKAYLELNNASHFFPQTVNTTMAKSMVSWLKRYVDDDTRYDPWLCPAPSGLSISDYRDTCPA [DP084] | 0
4) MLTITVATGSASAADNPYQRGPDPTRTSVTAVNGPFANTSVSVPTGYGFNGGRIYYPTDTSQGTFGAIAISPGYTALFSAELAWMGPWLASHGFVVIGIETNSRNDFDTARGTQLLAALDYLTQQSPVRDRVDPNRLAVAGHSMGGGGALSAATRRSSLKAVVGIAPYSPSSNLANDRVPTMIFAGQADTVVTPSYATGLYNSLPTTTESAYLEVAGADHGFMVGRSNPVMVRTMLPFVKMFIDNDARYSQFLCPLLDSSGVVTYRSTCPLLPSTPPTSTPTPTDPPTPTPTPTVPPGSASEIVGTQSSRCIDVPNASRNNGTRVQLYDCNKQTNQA [ESM121] | 0
5) ADNPHQRGPNPTQASITANRGTFATAETSVGGGNGFGAAKIYYPTDTSQGTFGAIAVVPGYTATWAAEGAWMGHWLASFGFVVIGIDTLNRNDFDVARGTQLLAALDYLTQRSSVRTRVDPNRLAVMGHSMGGGGTISAALRWPTLKAAIGLAPYSPSQTTSGLQVPTMLLAGQNDGTSTPASIISLYNNIPASTEKSYLELAGAGHGFPTSNNSVMTRKVIPWMKIFIDQDARYTQFLCPLQDWTGIRSYRSSCPLLPGATFSLAGSASGKCVDVPGRVQTNGTGLIIWTCNGAVNQQWTRTAAGELRIYDNAKCMDANASGPGTRVTINSCNGGNSQKWTVNANGTVTNAASGRCIDTGGTADNAPVVVNTCTGGTSQT [ESM163] | 0
6) NPYERGPAPTTSSIEASRGSFATSTTTVSRLAVSGFGGGTIYYPTSTASGTFGAVSIAPGFTATQSSMAWLGPRLASQGFVVFTIDTITTSDQPDSRGRQLLSSLDYLTQQSSVRSRIDSSRLGVVGHSMGGGGTLEAARSRPSLQAAVPLTGWNLTKSWSTVRVPTLVVGAQADTVAPVASHSIPFYTSLPSSLDKAYLELRGASHFAPNSANTTIAKYTLSWLKRFIDDDTRYEQFLCPIPGTSTTISDYRGNCPHAG [ESM140] | 0
7) DEIGQAPTASNITGNGSFATTSASISSTVAGFGGGRVYYPTATGTYPVIAISPGFTATWSSLSWIGPRLSSWGFVVVGIETNSIYDQPGSRGSQLLAALNWAVSSSPTAVRSRVDGSRRGVAGHSMGGGGTLEALAADTSGLVKAGVPLAPWNSDKTWNNVSEPVLIVGGQSDTIAPVSSHSVPFYNTLAGPKTYVELTGASHFFPQSSNATTSRALVSWFKRWLNQDSRFTPFTCGFSGAAVSSFRTNAC [ESM093] | 1
8) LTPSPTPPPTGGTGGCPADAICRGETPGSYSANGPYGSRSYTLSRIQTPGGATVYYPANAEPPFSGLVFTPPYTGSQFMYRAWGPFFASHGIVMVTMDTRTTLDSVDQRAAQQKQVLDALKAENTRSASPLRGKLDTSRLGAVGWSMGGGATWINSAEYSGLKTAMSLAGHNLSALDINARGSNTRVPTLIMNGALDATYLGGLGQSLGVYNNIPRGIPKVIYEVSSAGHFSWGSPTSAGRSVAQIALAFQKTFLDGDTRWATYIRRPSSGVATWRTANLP [ESM175] | 0
9) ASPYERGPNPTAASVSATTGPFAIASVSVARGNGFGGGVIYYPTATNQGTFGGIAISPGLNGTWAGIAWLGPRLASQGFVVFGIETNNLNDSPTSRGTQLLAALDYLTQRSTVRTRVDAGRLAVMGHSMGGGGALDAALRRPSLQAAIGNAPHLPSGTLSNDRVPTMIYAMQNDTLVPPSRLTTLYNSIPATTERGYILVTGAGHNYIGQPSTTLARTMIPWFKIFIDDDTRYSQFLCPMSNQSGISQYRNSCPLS [ESM160] | 0
10) ATPARPASVAAAPAAVQRAADNPYQRGPAPTEASITAEKGPFAVETIPVPAGSGTGFNKGTVYAPTDTSEGTFGAIVVSPGFVSPEAWISWYGPRLASQGFVVMTLETNSLVDVPASRGDQLLAALDWLTGKSSVKNRIDASRTAVMGHSMGGGGTLEAANKRPSLKADIPLAPWDTNYNFPNIKTPTLIMGADNDLIAPASSMAESYYNNITTAPEKAYLLLKNAGHMTFVSPNTTIAKYSIAWMKRFVDNDTRYDQFLCPAPKPDANIAKYLDTCPNG [DP016] | 0
